Molecular target: T1, NHERF3_4, Q5T2W1
T1 sequence (Q5T2W1 373-468, limits assumed, looked up): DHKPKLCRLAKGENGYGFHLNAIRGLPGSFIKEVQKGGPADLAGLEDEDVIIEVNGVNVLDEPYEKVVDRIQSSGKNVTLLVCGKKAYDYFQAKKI
Experiment: holdup assay
Design: key: below the threshold = too weak to quantify, mostly under pKd 3.1 to 4
Conditions: plain residues with an end cap or a label only (N-terminal biotin on a linker: ado-ado)
Parameter measured: pKd

REEPDHSTEV [CCRL2, O00421]
below the threshold
PYPTADHMLA [JUP, P14923]
below the threshold
DTKNYKQTSV [CRIPT, Q9P021]
3.56
EDLEDEWEVI [TECPR2, O15040]
below the threshold
